tested on: Escherichia coli IAI1; experiment: fold change of Putrescine concentration vs plate DMSO controls (fold change (ratio)); higher = more amine produced, active = hit call of the paper (significant change in both replicates, either direction); conditions: incubation time: 27 h, anaerobic, 37 °C
Where a name gives a salt, the structure may show the parent alone.
Would you please tag the item fulfilled when its fold change of Putrescine concentration is 1 or above, and not fulfilled when it is below?

>>> category_label("NC1CCN(c2nc3c(cc2F)c(=O)c(C(=O)O)cn3-c2ccc(F)cc2F)C1 (stereo not drawn) [Tosufloxacin hydrochloride] (20 µM)")
"not fulfilled"

We next turn to a different compound, shown below.
**Query** Does the reported fold change of Putrescine concentration for CC[C@H](c1ccc(O)cc1)[C@@H](CC)c1ccc(O)cc1 [Hexestrol] (20 µM) fall at or above the 1 mark?
**Result** fulfilled

* * *

tested on: Klebsiella aerogenes DSM 30053; test: fold change of Putrescine concentration vs plate DMSO controls (fold change (ratio)); higher = more amine produced, active = hit call of the paper (significant change in both replicates, either direction); details: incubation time: 27 h, anaerobic, 37 °C
Counter-ions that a name gives are not always drawn.
The compounds listed here are annotated with their fold change of Putrescine concentration.
API note: the answer field is a bare number with no unit suffix.

Guide cases for fold change of Putrescine concentration, answers given:
>>> value_observed("CCc1nc(N)nc(N)c1-c1ccc(Cl)cc1 [Pyrimethamine] (20 µM)")
0.977
>>> value_observed("Nc1nc(N)nc(-c2cc(Cl)ccc2Cl)n1 [Irsogladine maleate] (20 µM)")
0.998
>>> value_observed("O=C1CN2Cc3c(ccc(Cl)c3Cl)N=C2N1 [Anagrelide] (20 µM)")
0.986
>>> value_observed("CCCCCN(CCCCC)C(=O)C(CCC(=O)O)NC(=O)c1ccc(Cl)c(Cl)c1 (centres undefined) [Lorglumide sodium salt] (20 µM)")
1.01
>>> value_observed("CCOC(=O)[C@H](CCc1ccccc1)N[C@@H](C)C(=O)N1[C@H](C(=O)O)C[C@H]2CCCC[C@@H]21 [Trandolapril] (20 µM)")
1

**Query** Query fold change of Putrescine concentration for CN(C)CCOC1=Cc2ccccc2Sc2ccc(Cl)cc21 [Zotepine] (20 µM)
**Result** 0.99

**Query** Query fold change of Putrescine concentration for Cc1ccccc1OCC(O)CO (centres undefined) [Mephenesin] (20 µM)
**Result** 1

**Query** Query fold change of Putrescine concentration for CCN(CC)CCNC(=O)c1cc(Br)c(N)cc1OC [Bromopride] (20 µM)
**Result** 0.998

**Query** Query fold change of Putrescine concentration for Cc1cccc(C)c1NC(=O)CN1CCN(CCCC(c2ccc(F)cc2)c2ccc(F)cc2)CC1 [Lidoflazine] (20 µM)
**Result** 1

**Query** Query fold change of Putrescine concentration for CCN(CC)CCc1nc(-c2ccccc2)no1 [Oxolamine citrate salt] (20 µM)
**Result** 1.01

**Query** Query fold change of Putrescine concentration for CN(C)CCOC(c1ccccc1)c1ccccc1 [Diphenhydramine hydrochloride] (20 µM)
**Result** 0.996

**Query** Query fold change of Putrescine concentration for COc1ccc2cc1Oc1ccc(cc1)C[C@H]1c3c(cc4c(c3Oc3cc5c(cc3OC)CCN(C)[C@@H]5C2)OCO4)CCN1C [Cepharanthine] (20 µM)
**Result** 1.01

**Query** Query fold change of Putrescine concentration for O=C(c1cc(O)c(O)c(O)c1)c1ccc(O)c(O)c1O [Exifone] (20 µM)
**Result** 0.998

**Query** Query fold change of Putrescine concentration for CCCCNC(=N)NC(=N)N [Buformin] (20 µM)
**Result** 1.01
